Catalogue of sequences with associated PBM binding z-score
System: LXRa:RXRa (NR concentration 270 nM, RXRa partner concentration 90 nM)
Test: PBM binding z-score (relative to random genomic background probes); higher = stronger binding; sequences stand for … in GC…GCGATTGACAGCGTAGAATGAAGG
Reply briefly: the number, and no unit.

Solved cases below.
                       query_sequence  experimental_result
0  TGAATGAAGTTATAAGATCAGGGAACGTTGCAAA               -0.697
1  GCATATAGGTAATACTAGGTGAAAGTCCGATTGT                 2.49

Moving on to another sequence below.
Name the value of PBM binding z-score reported for CCTCGGAGGACAACAGGAGGTCAGAGCAGCCAGA when tested on LXRa:RXRa (NR concentration 270 nM, RXRa partner concentration 90 nM).
1.9
